# Binding of antibody 03-018 to looped/cyclic peptides of the N protein of SARS-CoV Urbani annotations
Test system: recombinant human anti-SARS-CoV antibody 03-018
Format: binding
Parameters: unit not given here
Answer with a number only.

Below: 8 sequences and their reported Binding of antibody 03-018 to looped/cyclic peptides of the N protein of SARS-CoV Urbani.
1) PPTEPKKDKKKKTDE
0.2
2) GARPKQRRPQGLPNN
0.2
3) LPQRQKKQPTVTLLP
0.3
4) ANKEGIVWVATEGAL
0.2
5) NFGDQDLIRQGTDYK
0.2
6) FYYLGTGPEASLPYG
0.2
7) VWVATEGALNTPKDH
0.3
8) TPGSSRGNSPARMAS
0.3

Record PDDQIGYYRRATRRV ; system recombinant human anti-SARS-CoV antibody 03-018; Binding of antibody 03-018 to looped/cyclic peptides of the N protein of SARS-CoV Urbani = 0.3

Record DQIGYYRRATRRVRG ; system recombinant human anti-SARS-CoV antibody 03-018; Binding of antibody 03-018 to looped/cyclic peptides of the N protein of SARS-CoV Urbani = 0.3

Record NNQNGGRNGARPKQR ; system recombinant human anti-SARS-CoV antibody 03-018; Binding of antibody 03-018 to looped/cyclic peptides of the N protein of SARS-CoV Urbani = 0.2

###

Test system: rabbit serum obtained by immunizing a rabbit with the SARS-CoV strain Frankfurt 1
Format: binding
Parameters: unit not given here
Threshold-based label: Binding of a rabbit serum to linear peptides under 0.2 gives fulfilled, Binding of a rabbit serum to linear peptides not under 0.2 gives not fulfilled.

1) IGVAFLAVFQSATKI
fulfilled
2) LYLYALIYFLQCINA
fulfilled
3) YHITVSQIQLSLLKV
not fulfilled
4) RWQLALYKGFQFICN
not fulfilled
5) HSGVKDYVVVHGYFT
fulfilled

Is the reported Binding of a rabbit serum to linear peptides for CIPYNSVTDTIVVTE strictly below 0.2?
fulfilled

Is the reported Binding of a rabbit serum to linear peptides for ITTDTGIENATFFIF strictly below 0.2?
fulfilled

Is the reported Binding of a rabbit serum to linear peptides for VYHITVSQIQLSLLK strictly below 0.2?
not fulfilled

Is the reported Binding of a rabbit serum to linear peptides for NYDYCIPYNSVTDTI strictly below 0.2?
fulfilled

Is the reported Binding of a rabbit serum to linear peptides for TTVYHITVSQIQLSL strictly below 0.2?
not fulfilled

###

Test system: antibodies in sera from SARS patients (sera 1a, 1b, 2, 6, 37, 62, London, SARS-yellow, SARS-green)
Assay type: binding, human
Parameters: unit not given here
QUANTITY_NAME: Binding of serum 1a to looped/cyclic peptides of protein N of SARS-CoV Urbani
Answer with a number only.

Below: 2 sequences and their reported Binding of serum 1a to looped/cyclic peptides of protein N of SARS-CoV Urbani.
1) QHGKEELRFPRGQGV
0.4
2) TPGSSRGNSPARMAS
0.4

Form: sequence = TNSGPDDQIGYYRRA ; Binding of serum 1a to looped/cyclic peptides of protein N of SARS-CoV Urbani = 0.5

Form: sequence = EGSRGGSQASSRSSS ; Binding of serum 1a to looped/cyclic peptides of protein N of SARS-CoV Urbani = 0.4

Form: sequence = KHWPQIAQFAPSASA ; Binding of serum 1a to looped/cyclic peptides of protein N of SARS-CoV Urbani = 0.3

Form: sequence = ALLLLDRLNQLESKV ; Binding of serum 1a to looped/cyclic peptides of protein N of SARS-CoV Urbani = 0.4

Form: sequence = FGDQDLIRQGTDYKH ; Binding of serum 1a to looped/cyclic peptides of protein N of SARS-CoV Urbani = 0.4

Form: sequence = QYNVTQAFGRRGPEQ ; Binding of serum 1a to looped/cyclic peptides of protein N of SARS-CoV Urbani = 0.4

Value source: patent US20070128217A1
